Biological target: T1, HBV core antigen (hepatitis B virus), P03146
T1 chain: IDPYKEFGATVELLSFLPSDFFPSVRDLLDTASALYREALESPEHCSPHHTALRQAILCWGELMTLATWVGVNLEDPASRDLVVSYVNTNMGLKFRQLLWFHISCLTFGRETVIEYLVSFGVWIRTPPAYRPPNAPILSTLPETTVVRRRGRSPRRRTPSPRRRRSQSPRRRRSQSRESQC
Test: relative dissociation constant (KD^Rel), fd fusion phage with HBV core antigen in solution
Field: Kd. Provide a value for each of the binders that follow.
Enter your answer as a number in nM; do not include the unit.

Note to self: Kd recorded for ADGSLLGRMKPA (modifications not checked) [fd fusion phage carrying … (SEQ ID NO: 15)] was 322

Note to self: Kd recorded for ADGALLGRMKPA (modifications not checked) [fd fusion phage carrying … (SEQ ID NO: 14)] was 767

Note to self: Kd recorded for ADGHRSSLLGRMKGA (modifications not checked) [fd fusion phage carrying … (SEQ ID NO: 22)] was 1.4
